Source: paper PMC4640556

target: ECAO (Escherichia coli); construct: made in house; host or cells: E. coli; inferred from the overexpression strain E. coli (pKK233-3-tynA); experiment: ECAO inhibitor test (spectroscopic amine oxidase activity assay, purified ECAO, substrate PEA); assay type: biochemical; conditions: purified ECAO, 0.5 mM PEA, seven inhibitor concentrations 0.1–10 μM, 30°C; read-out: half maximal inhibitory concentration (IC50) on ECAO activity on PEA
Sequence (P46883 31-757): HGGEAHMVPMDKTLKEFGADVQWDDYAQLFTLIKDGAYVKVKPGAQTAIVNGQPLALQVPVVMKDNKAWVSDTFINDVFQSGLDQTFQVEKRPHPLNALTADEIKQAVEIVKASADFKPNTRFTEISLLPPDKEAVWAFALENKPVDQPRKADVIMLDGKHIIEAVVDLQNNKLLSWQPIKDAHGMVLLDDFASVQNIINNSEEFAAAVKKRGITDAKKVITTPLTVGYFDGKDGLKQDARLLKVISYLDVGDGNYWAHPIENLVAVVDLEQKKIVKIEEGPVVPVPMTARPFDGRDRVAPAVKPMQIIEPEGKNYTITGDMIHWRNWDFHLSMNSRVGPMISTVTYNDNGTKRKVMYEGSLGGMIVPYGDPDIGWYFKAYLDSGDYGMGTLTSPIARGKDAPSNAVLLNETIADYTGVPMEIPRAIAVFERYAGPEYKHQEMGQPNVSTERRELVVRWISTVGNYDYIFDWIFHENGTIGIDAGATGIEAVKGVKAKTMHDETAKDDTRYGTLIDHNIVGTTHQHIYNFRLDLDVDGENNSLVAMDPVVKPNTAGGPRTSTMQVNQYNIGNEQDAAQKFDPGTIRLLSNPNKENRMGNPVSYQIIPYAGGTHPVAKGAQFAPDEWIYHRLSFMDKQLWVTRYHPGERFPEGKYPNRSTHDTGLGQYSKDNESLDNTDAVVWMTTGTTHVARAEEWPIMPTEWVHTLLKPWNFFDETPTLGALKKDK
ASSAY_METRIC: IC50 (nM)

- COMPOUND: "NNC(N)=O [SC, semicarbazide]"
  STUDY_SYSTEM: "ECAO (Escherichia coli)"
  ASSAY_METRIC: "IC50"
  ENDPOINT_RESULT: 700
